Test Protocol: BET inhibitor-based combinations targeting novel dependencies in MECOM-rearranged (r) AML: AML-194 cell line (AID 2202237; also: nearly all actives have a fitted effect of over 40% in size; also: potency is read from the fitted curve at half-maximal effect)
Measurement Setup: AML-194 (MECOM-r AML) viability, CellTiter-Glo, 48 h; series mostly up to 46 µM
Results filed as inconclusive are left out. Activity calls are given as the source filed them. Calls follow the shape of the dose curve; as a rule, active = well fitted inhibition curve with a large enough effect; inconclusive = small, poorly fitted or top-dose-only effect; inactive = flat fitted curve, though single readings scatter.
Attribute Measured: Potency

// worked examples, Potency included
[
  {
    "Compound": "CN1CC(=O)NC1=NC(=O)Nc1cccc(Cl)c1",
    "Result": "inactive"
  },
  {
    "Compound": "O=C(CCl)Nc1cccc(NC2=NS(=O)(=O)c3ccccc32)c1",
    "Result": "13.2 µM (active)"
  },
  {
    "Compound": "CC(C)(Oc1ccc(C2CC2(Cl)Cl)cc1)C(=O)O (stereo not drawn)",
    "Result": "inactive"
  },
  {
    "Compound": "COc1cc(N2CCC(N3CCN(C)CC3)CC2)ccc1Nc1ncnc(Nc2ccccc2S(=O)(=O)C(C)C)n1",
    "Result": "10.5 µM (active)"
  },
  {
    "Compound": "Cc1ccccc1-n1nc(-c2c(-c3ccc(F)cc3)nn3c2NC[C@@H](CO)C3)ccc1=O",
    "Result": "inactive"
  }
]

I'm hoping you can list Potency for every compound here, please.
1. NCC1CCN(c2nccc(-c3ccc4ccccc4c3)n2)CC1
2. Cc1[nH]nc(C(F)(F)F)c1Cc1sc2c(c1C(=O)N1C[C@](C)(O)CO1)c(=O)n(C)c(=O)n2C(C)C
3. NCCS(=O)(=O)O
4. OC(CCN1CCCCC1)(c1ccccc1)C1CC2C=CC1C2 (stereo not drawn)
5. Cc1nc(-c2ccc(OCC(C)C)c(C#N)c2)sc1C(=O)O
6. Nc1nc(N)c2nc(CNc3ccc(C(=O)NC(CCC(=O)O)C(=O)O)cc3)cnc2n1 (stereo not drawn)
7. CN1CCCN=C1/C=C/c1cccs1
8. N#Cc1cc(NC(=O)Nc2nnc(-c3ccncc3)s2)ccc1-c1cn[nH]c1

1: 2.95 µM (active); 2: inactive; 3: inactive; 4: inactive; 5: inactive; 6: inactive; 7: inactive; 8: inactive

---

Test Protocol: BET inhibitor-based combinations targeting novel dependencies in MECOM-rearranged (r) AML: HNT-34 cell line (AID 2202234); also: nearly all actives have a fitted effect of over 35% in size
Measurement Setup: HNT-34 AML viability, CellTiter-Glo luminescence, 48 h; series mostly up to 46 µM
Results filed as inconclusive are left out. Active and inactive are the calls of the source. Calls come from the whole dose curve; as a rule, active = well fitted inhibition curve with a large enough effect; inconclusive = small, poorly fitted or top-dose-only effect; inactive = no such curve, though single readings can be large or run the other way.
Pick one and only one: YES for active, NO for inactive

Known results for molecules:
[
  {
    "Chemical String": "CCOc1ccn(-c2ccc(F)cc2)c(=O)c1C(=O)Nc1ccc(Oc2ccnc(N)c2Cl)c(F)c1",
    "Assigned Label": "YES"
  },
  {
    "Chemical String": "O=C(O)[C@H](Cc1c[nH]c2ccccc12)N1C(=O)c2ccccc2C1=O",
    "Assigned Label": "NO"
  },
  {
    "Chemical String": "CC1CCN(c2cc(N3CCN(C)CC3)ccc2NC(=O)c2cc(C#N)c[nH]2)CC1",
    "Assigned Label": "YES"
  },
  {
    "Chemical String": "OCCCNc1cc(-c2ccnc(Nc3cccc(Cl)c3)n2)ccn1",
    "Assigned Label": "YES"
  },
  {
    "Chemical String": "CCOc1cc(C(=O)N2CCC(N3CCN(C)CC3)CC2)ccc1Nc1ncc2c(n1)N(C1CCCC1)c1ccccc1C(=O)N2C",
    "Assigned Label": "YES"
  },
  {
    "Chemical String": "COc1cc2nccc(Oc3ccc(NC(=O)C4(C(=O)Nc5ccc(F)cc5)CC4)cc3)c2cc1OC",
    "Assigned Label": "YES"
  },
  {
    "Chemical String": "CN(C)CC/C=C1/c2ccccc2COc2ccc(CC(=O)O)cc21",
    "Assigned Label": "NO"
  },
  {
    "Chemical String": "O=C1NC(=O)/C(=C/c2ccc3nccnc3c2)S1",
    "Assigned Label": "NO"
  }
]

Query: recorded result category for "NC(N)=NC(N)=NCCc1ccccc1" in this test
NO

Query: recorded result category for "Cc1cnc(NC(=O)C2=C(O)c3ccccc3S(=O)(=O)N2C)s1" in this test
NO

Query: recorded result category for "Oc1ccc([C@@H]2Oc3ccc(O)cc3[C@@H]3CCC[C@@H]32)cc1" in this test
YES

Query: recorded result category for "Cc1nc(-c2ccc(OCC(C)C)c(C#N)c2)sc1C(=O)O" in this test
NO

Query: recorded result category for "O=C(Nc1c(Cl)cncc1Cl)c1ccc(OC(F)F)c(OCC2CC2)c1" in this test
NO

Query: recorded result category for "Cn1cc(-c2[nH]c3cc(NC(=O)[C@H](N)C4CCCCC4)cc4c3c2C=NNC4=O)cn1" in this test
YES

Query: recorded result category for "Clc1ccc(Nc2nnc(Cc3ccncc3)c3ccccc23)cc1" in this test
NO

Query: recorded result category for "CCCn1c(=O)c2[nH]c(-c3cnn(Cc4cccc(C(F)(F)F)c4)c3)nc2n(CC)c1=O" in this test
NO

Query: recorded result category for "C#Cc1cccc(Nc2ncnc3cc(OCCOC)c(OCCO)cc23)c1" in this test
YES

// provenance: PubChem BioAssay (NCATS)
